- Assay Target: human cloned 5-HT6 receptors (Homo sapiens, UniProt P50406)
- Sequence (P50406 whole entry): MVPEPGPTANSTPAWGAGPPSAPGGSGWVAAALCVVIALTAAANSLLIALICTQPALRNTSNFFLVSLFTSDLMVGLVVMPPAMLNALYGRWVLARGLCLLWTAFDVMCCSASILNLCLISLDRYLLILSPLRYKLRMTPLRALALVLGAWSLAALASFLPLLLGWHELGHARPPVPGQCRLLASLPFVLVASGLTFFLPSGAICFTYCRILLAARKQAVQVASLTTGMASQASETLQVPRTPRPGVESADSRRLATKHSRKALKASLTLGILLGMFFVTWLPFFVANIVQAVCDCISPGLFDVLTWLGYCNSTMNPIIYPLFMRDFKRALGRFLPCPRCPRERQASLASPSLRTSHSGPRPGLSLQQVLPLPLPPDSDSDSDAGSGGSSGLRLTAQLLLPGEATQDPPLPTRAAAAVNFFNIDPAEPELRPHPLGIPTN
pKi: −log10 of the molar value. Where a name gives a salt, the structure may show the parent alone.
Reported Endpoint: pKi

O=S(=O)(c1cccc2ccccc12)c1n[nH]c2ccc(OCCNC3CC3)cc12; 8.00 to 11.00
NCCC(=O)Nc1cccc2c(S(=O)(=O)c3cccc4ccccc34)n[nH]c12 [Example 164, hydrochloride]; 8.00 to 11.00
CCNCCOc1cccc2c(S(=O)(=O)c3ccccc3)n[nH]c12; 8.00 to 11.00
CCN(CC)CCOc1ccc2c(c1)c(S(=O)(=O)c1cccc3ccccc13)nn2Cc1cccc(Cl)c1; < 7.35
COc1cc(OCCN2CCCCC2)c2c(c1)c(S(=O)(=O)c1cccc3ccccc13)nn2Cc1cccc(Cl)c1; 8.00 to 11.00
CC(C)NCCCc1ccc2[nH]nc(S(=O)(=O)c3ccccc3)c2c1 [Example 179, trifluoroacetate]; < 7.35

Switching to the query record.
What is its pKi for human cloned 5-HT6 receptors (Homo sapiens, UniProt P50406)? Entry: "CCN(C)CCCCc1ccc2[nH]nc(S(=O)(=O)c3cccc4ccccc34)c2c1"
8.00 to 11.00

----------
Structures can show the parent of a compound that is named as a salt.
List of melting point values.

O=S(=O)(c1ccccc1)c1n[nH]c2ccc(OCCNC3CC3)cc12 (as salt: hydrochloride); 184 to 185 °C (dec.)
CC1CN(Cc2ccc3[nH]nc(S(=O)(=O)c4cccc5ccccc45)c3c2)CCN1 (stereo not drawn) (as salt: HCl); > 200 °C
CC(C)NCCCCc1ccc2[nH]nc(S(=O)(=O)c3cccc4ccccc34)c2c1; 145 to 150 °C
CN(C)CCN(C)Cc1ccc2[nH]nc(S(=O)(=O)c3cccc4ccccc34)c2c1 (as salt: hydrochloride); > 200 °C
O=S(=O)(c1ccccc1)c1n[nH]c2c(CCNC3CC3)cccc12 (as salt: hydrochloride); 115 to 117 °C

// returns reported melting point for input CN(C)CCCc1ccc2[nH]nc(S(=O)(=O)c3ccccc3)c2c1 (as salt: trifluoroacetate)
75 to 80 °C

// returns reported melting point for input "Cl.NCCc1cccc2c(S(=O)(=O)c3ccccc3)n[nH]c12"
157 to 160 °C

// returns reported melting point for input "NCCCc1ccc2[nH]nc(S(=O)(=O)c3cccc4ccccc34)c2c1"
92 to 94 °C

----------
Structures can show the parent of a compound that is named as a salt.
Hi! I'm sharing some Ki results obtained with human cloned 5-HT6 receptors (Homo sapiens).

CN(C)CCOc1ccc2[nH]nc(S(=O)(=O)c3cccc4ccccc34)c2c1; 0.01 to 10 nM
CN(C)CCCc1ccc2[nH]nc(S(=O)(=O)c3cccc4ccccc34)c2c1 [Example 182, hydrochloride]; 0.01 to 10 nM
O=S(=O)(c1cccc2ccccc12)c1n[nH]c2ccc(OCCCCN3CCCC3)cc12; 0.01 to 10 nM

What is its Ki for human cloned 5-HT6 receptors (Homo sapiens)? Entry: NCCNc1ccc2c(S(=O)(=O)c3cccc4ccccc34)n[nH]c2c1 [Example 170, dihydrochloride]
11 to 25 nM

----------
pKi: −log10 of the molar value.
Hi! I'm sharing some pKi results obtained with UniProtKB P50406.

Recorded results for 3 compounds are shown here.
CNCCOc1cc(OC)cc2c(S(=O)(=O)c3cccc4ccccc34)nn(Cc3cccc(Cl)c3)c12; < 7.35
CN(C)CCOc1ccc2c(c1)c(S(=O)(=O)c1cccc3ccccc13)nn2C; 8.00 to 11.00
CCCCNCCOc1cccc2c(S(=O)(=O)c3cccc4ccccc34)nn(C)c12; 7.46 to 7.59

// returns reported pKi for input "CCN(CC)CCCOc1cccc2c(S(=O)(=O)c3cccc4ccccc34)nn(Cc3cccc(Cl)c3)c12"
7.60 to 7.96

----------
List of Ki values.
- Assay Target: human cloned 5-HT6 receptors (Homo sapiens)
Counter-ions that a name gives are not always drawn.

Recorded results for 5 molecules are shown here.
O=S(=O)(c1ccccc1)c1n[nH]c2ccc(CCCNC3CC3)cc12; 11 to 25 nM
CCN(CC)CCOc1cccc2c(S(=O)(=O)c3ccccc3)n[nH]c12; 0.01 to 10 nM
CNCCOc1ccc2c(S(=O)(=O)c3cccc4ccccc34)n[nH]c2c1 [Example 147, Hydrochloride]; 11 to 25 nM
NCCNc1cccc2c(S(=O)(=O)c3cccc4ccccc34)n[nH]c12 [Example 161, dihydrochloride]; 11 to 25 nM
CN(C)CCOc1ccc2c(S(=O)(=O)c3cccc4ccccc34)n[nH]c2c1; > 45 nM

What is its Ki for human cloned 5-HT6 receptors (Homo sapiens)? Entry: CCN(CC)CCC(=O)Nc1cccc2c(S(=O)(=O)c3cccc4ccccc34)n[nH]c12 [Example 166, hydrochloride]
26 to 35 nM

----------
- Assay Target: human cloned 5-HT6 receptors (Homo sapiens, UniProt P50406)
- Construct: expressed in transfected cells; host or cells: HeLa cells
- Assay Method Text: 5-HT6 binding affinity, [3H]-LSD displacement
- Measurement Parameters: membranes of Hela cells expressing human cloned 5-HT6 receptors; [3H]-LSD 3.0 nM; 120 minutes at room temperature
Structures can show the parent of a compound that is named as a salt.
Reported Endpoint: Ki

Recorded results for 5 compounds are shown here.
CCN(CC)CCOc1cc(F)cc2c(S(=O)(=O)c3cccc4ccccc34)nn(Cc3cccc(Cl)c3)c12; > 45 nM
CNCCOc1ccc2c(c1)c(S(=O)(=O)c1cccc3ccccc13)nn2Cc1ccccc1; 26 to 35 nM
CCNCCOc1cc(F)cc2c(S(=O)(=O)c3cccc4ccccc34)n[nH]c12; 0.01 to 10 nM
O=S(=O)(c1cccc2ccccc12)c1n[nH]c2c(OCCN3CCCCC3)cc(F)cc12; 0.01 to 10 nM
CNCCOc1ccc2c(c1)c(S(=O)(=O)c1cccc3ccccc13)nn2C; 0.01 to 10 nM

// returns reported Ki for input "CCNCCOc1ccc2c(c1)c(S(=O)(=O)c1cccc3ccccc13)nn2Cc1ccccc1"
11 to 25 nM

// returns reported Ki for input NCCCCc1ccc2[nH]nc(S(=O)(=O)c3ccccc3)c2c1 [Example 181, hydrochloride]
26 to 35 nM

// returns reported Ki for input "NCCOc1cccc2[nH]nc(S(=O)(=O)c3cccc4ccccc34)c12"
11 to 25 nM

// returns reported Ki for input CC(N)CNc1ccc2[nH]nc(S(=O)(=O)c3cccc4ccccc34)c2c1 (stereo not shown) [Example 159, hydrochloride]
11 to 25 nM

// returns reported Ki for input "CCN(CC)CCOc1cccc2c(S(=O)(=O)c3cccc4ccccc34)nn(C)c12"
0.01 to 10 nM

// returns reported Ki for input NCCC(=O)Nc1ccc2[nH]nc(S(=O)(=O)c3cccc4ccccc34)c2c1 [Example 158, hydrochloride]
0.01 to 10 nM

----------
- Assay Target: human cloned 5-HT6 receptors (Homo sapiens)
- Construct: expressed in transfected cells; host or cells: HeLa cells
- Assay Method Text: 5-HT6 binding affinity, [3H]-LSD displacement
- Measurement Parameters: membranes of Hela cells expressing human cloned 5-HT6 receptors; [3H]-LSD 3.0 nM; 120 minutes at room temperature
Structures can show the parent of a compound that is named as a salt.
List of Ki values.

Recorded results for 3 compounds are shown here.
CCN(CC)CCOc1cccc2c(S(=O)(=O)c3ccccc3)nn(Cc3cccc(Cl)c3)c12 [Example 84]; > 45 nM
O=S(=O)(c1cccc2ccccc12)c1n[nH]c2ccc(OCCNC3CCCC3)cc12 [Example 35]; 0.01 to 10 nM
NCCNCc1ccc2[nH]nc(S(=O)(=O)c3cccc4ccccc34)c2c1 [Example 155]; 11 to 25 nM

What is its Ki for human cloned 5-HT6 receptors (Homo sapiens)? Entry: CCNCCOc1cccc2c(S(=O)(=O)c3ccccc3)nn(C)c12 [Example 102]
26 to 35 nM

What is its Ki for human cloned 5-HT6 receptors (Homo sapiens)? Entry: CNCCOc1cc(F)cc2c(S(=O)(=O)c3cccc4ccccc34)nn(Cc3cccc(Cl)c3)c12 [Example 107, Hydrochloride]
> 45 nM

What is its Ki for human cloned 5-HT6 receptors (Homo sapiens)? Entry: CCN(CC)CCOc1ccc2[nH]nc(S(=O)(=O)c3ccccc3)c2c1 [Example 5]
36 to 45 nM

What is its Ki for human cloned 5-HT6 receptors (Homo sapiens)? Entry: NCCCc1ccc2[nH]nc(S(=O)(=O)c3ccccc3)c2c1 [Example 180, trifluoroacetate]
11 to 25 nM

What is its Ki for human cloned 5-HT6 receptors (Homo sapiens)? Entry: CN(C)CCOc1ccc2c(c1)c(S(=O)(=O)c1cccc3ccccc13)nn2Cc1ccccc1 [Example 51]
11 to 25 nM

----------
- Assay Target: human cloned 5-HT6 receptors (Homo sapiens)
pKi: −log10 of the molar value. Where a name gives a salt, the structure may show the parent alone.
List of pKi values.

CNCCOc1cccc2c(S(=O)(=O)c3ccccc3)n[nH]c12; 8.00 to 11.00
CN(C)CCc1cccc2c(S(=O)(=O)c3ccccc3)n[nH]c12 [Example 171, hydrochloride]; 8.00 to 11.00
O=S(=O)(c1cccc2ccccc12)c1n[nH]c2ccc(CCCCN3CCCC3)cc12; 7.60 to 7.96

Switching to the query record.
What is its pKi for human cloned 5-HT6 receptors (Homo sapiens)? Entry: "CNCCCOc1cccc2c(S(=O)(=O)c3cccc4ccccc34)nn(Cc3cccc(Cl)c3)c12"
< 7.35
